The reported numbers originate from patent US20230364057A1.

Test system: MRSA
Assay: Minimum inhibitory concentration, broth microdilution
Conditions: Staphylococcus aureus, ATCC33591 / MRSA, read-out: MIC MRSA ATCC 33591
The reader will find reported MIC values listed item by item below.
Entry rule: numbers only, all in µM.

Answered cases to consult:
CCCCCCCCOC(=O)c1cc(O)c(O)c(O)c1 [Octyl gallate, octyl gallate] = 100
CCCCCCCCCCCCOC(=O)c1cc(O)c(O)c(O)c1 [Dodecyl gallate, dodecyl gallate] = 200
O=C(Oc1ccccc1)c1cc(O)c(O)c(O)c1 [Phenyl gallate, phenyl gallate] = 200

We now examine a further compound.
Per the record, O=C(O)c1cc(O)c(O)c(OC(=O)c2cc(O)c(O)c(O)c2)c1 has MIC of 200
